Molecular target: T1, TNFR1 (Homo sapiens, UniProt P19438)
T1 chain: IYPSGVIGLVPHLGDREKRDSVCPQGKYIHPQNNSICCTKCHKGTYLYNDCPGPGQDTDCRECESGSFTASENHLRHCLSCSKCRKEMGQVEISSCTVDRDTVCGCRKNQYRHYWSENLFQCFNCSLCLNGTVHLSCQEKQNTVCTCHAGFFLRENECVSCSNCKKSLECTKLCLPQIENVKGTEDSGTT
Test: yeast display SC50
measured_quantity: apparent Kd (screen) (nM)

Data request: Fill in apparent Kd (screen) for record V74K (designed binder) SMEEEVEKAAKEYEKKKKEAIEKHLEKLKAKDKEAAERFLKELEEAAKEYAKDEAKTMSEEEAKRRAKKYKEKKLLSELSEEEQKEIKEAEEKLVRTILKYVEEAAK
Data returned: 6.43

[A] I98N (designed binder) SMEEEVEKAAKEYEKKKKEAIEKHLEKLKAKDKEAAERFLKELEEAAKEYAKDEAKTMSEEEAKRRAKKYKEKVLLSELSEEEQKEIKEAEEKLVRTNLKYVEEAAK
[B] E19T (designed binder) SMEEEVEKAAKEYEKKKKTAIEKHLEKLKAKDKEAAERFLKELEEAAKEYAKDEAKTMSEEEAKRRAKKYKEKVLLSELSEEEQKEIKEAEEKLVRTILKYVEEAAK
[C] Y70N (designed binder) SMEEEVEKAAKEYEKKKKEAIEKHLEKLKAKDKEAAERFLKELEEAAKEYAKDEAKTMSEEEAKRRAKKNKEKVLLSELSEEEQKEIKEAEEKLVRTILKYVEEAAK
Data request: Sort these binders on apparent Kd (screen) so the largest reading comes first. Output spec: a listing of the labels in the requested order.
Data returned: C, A, B

[a] A47Y (designed binder) SMEEEVEKAAKEYEKKKKEAIEKHLEKLKAKDKEAAERFLKELEEAYKEYAKDEAKTMSEEEAKRRAKKYKEKVLLSELSEEEQKEIKEAEEKLVRTILKYVEEAAK
[b] K68P (designed binder) SMEEEVEKAAKEYEKKKKEAIEKHLEKLKAKDKEAAERFLKELEEAAKEYAKDEAKTMSEEEAKRRAPKYKEKVLLSELSEEEQKEIKEAEEKLVRTILKYVEEAAK
Data request: // compare measured apparent Kd (screen) between a and b ; output the lower one // output: label of the selected item
Data returned: a

[I] K56D (designed binder) SMEEEVEKAAKEYEKKKKEAIEKHLEKLKAKDKEAAERFLKELEEAAKEYAKDEADTMSEEEAKRRAKKYKEKVLLSELSEEEQKEIKEAEEKLVRTILKYVEEAAK
[II] E5Q (designed binder) SMEEQVEKAAKEYEKKKKEAIEKHLEKLKAKDKEAAERFLKELEEAAKEYAKDEAKTMSEEEAKRRAKKYKEKVLLSELSEEEQKEIKEAEEKLVRTILKYVEEAAK
Data request: Looking at I and II , which one comes out lower in apparent Kd (screen) terms? I would appreciate it if you answered with the label of your choice.
Data returned: II
